Reference source for all entries: ChEMBL document CHEMBL4229455

# Species: Sus scrofa domesticus
# assay comment: Inhibition of domestic porcine brain full length […] assessed as residual activity at 10 uM using RRKHAAIGSpAYSITA as substrate in presence of [gamma-33P]ATP
recorded endpoint: Activity (%)
Give just the numeric value; % need not be written.

Task item: Reported Activity for CCn1cc(C2=C(c3cn(C(C)C)c4ccccc34)C(=O)N(O)C2=O)c2ccccc21 : what is it?
Reply: 107

Task item: Can you share its Activity? I mean this molecule: CCn1cc(C2=C(c3cn(C)c4ccccc34)C(=O)N(O)C2=O)c2ccccc21
Reply: 77

Task item: Name the reported Activity value associated with the molecule Cn1cc(C2=C(c3c[nH]c4ccccc34)C(=O)N(O)C2=O)c2ccccc21
Reply: 40

Task item: Please report the recorded Activity for N#CCCCCCn1cc(C2=C(c3cn(CCCCCC#N)c4ccccc34)C(=O)N(O)C2=O)c2ccccc21 .
Reply: 67

Task item: Tell me the measured Activity of CC(C)n1cc(C2=C(c3c[nH]c4ccccc34)C(=O)N(O)C2=O)c2ccccc21 , please.
Reply: 72

Task item: Which Activity is listed for O=C1C2=C(C(=O)N1O)c1cn(c3ccccc13)CCCCCCn1cc2c2ccccc21 ?
Reply: 103

Task item: # lookup: Activity of Cn1cc(C2=C(c3cn(C)c4ccccc34)C(=O)N(O)C2=O)c2ccccc21
Reply: 104

Task item: Would you mind telling me what Activity value was observed for Cn1cc(C2=C(c3cn(CCCCCC#N)c4ccccc34)C(=O)N(O)C2=O)c2ccccc21 ?
Reply: 88

Task item: What value of Activity has been reported for the following molecule? CC(C)n1cc(C2=C(c3cn(C)c4ccccc34)C(=O)N(O)C2=O)c2ccccc21
Reply: 98

Task item: Item N#CCCCCCn1cc(C2=C(c3cn(CCCCCC#N)c4ccccc34)C(=O)NC2=O)c2ccccc21 has what recorded Activity?
Reply: 108

====

# system tested: CDK2/Cyclin A2 (Homo sapiens) (UniProt P24941+P20248)
# assay comment: Inhibition of full length human CDK2/cyclin A assessed as residual activity at 10 uM using histone H1 as substrate in presence of [gamma-33P]ATP
# Type: protein-complex assay
Labelling: Activity reported below 70% becomes 1 (yes); at or above becomes 0 (no).

Worked examples follow.
{"columns": ["smiles data", "category label"],
 "data": [
  ["N#CCCCCCn1cc(C2=C(c3cn(CCCCCC#N)c4ccccc34)C(=O)N(O)C2=O)c2ccccc21", "0 (no)"],
  ["N#CCCCCCn1cc(C2=C(c3cn(CCCCCC#N)c4ccccc34)C(=O)NC2=O)c2ccccc21", "1 (yes)"],
  ["O=C1C2=C(C(=O)N1O)c1cn(c3ccccc13)CCCCCCn1cc2c2ccccc21", "0 (no)"],
  ["Cn1cc(C2=C(c3cn(CCCCCC(=O)O)c4ccccc34)C(=O)N(O)C2=O)c2ccccc21", "1 (yes)"],
  ["O=C1C(c2c[nH]c3ccccc23)=C(c2c[nH]c3ncccc23)C(=O)N1O", "0 (no)"],
  ["Cn1cc(C2=C(c3cn(C)c4ncccc34)C(=O)NC2=O)c2ccccc21", "1 (yes)"]
]}

Task item: Criterion: Activity strictly below 70%. Is it met by CC(C)n1cc(C2=C(c3cn(C)c4ccccc34)C(=O)N(O)C2=O)c2ccccc21 ?
Reply: 1 (yes)

====

# system tested: Aurora kinase B (Homo sapiens, UniProt Q96GD4)
# Sequence (Q96GD4 whole entry): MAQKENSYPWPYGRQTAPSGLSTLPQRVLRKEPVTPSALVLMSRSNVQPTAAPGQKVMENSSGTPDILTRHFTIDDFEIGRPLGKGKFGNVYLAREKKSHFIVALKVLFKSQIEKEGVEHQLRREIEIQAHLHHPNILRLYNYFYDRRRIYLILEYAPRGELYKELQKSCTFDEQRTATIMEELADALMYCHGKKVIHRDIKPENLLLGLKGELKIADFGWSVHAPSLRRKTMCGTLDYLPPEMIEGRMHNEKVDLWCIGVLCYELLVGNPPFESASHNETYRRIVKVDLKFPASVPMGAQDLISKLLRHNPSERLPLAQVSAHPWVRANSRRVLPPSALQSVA
# assay comment: Inhibition of recombinant full length human aurora B expressed in baculovirus infected Sf9 insect cells assessed as residual activity at 10 uM using MBP as substrate in presence of [gamma-33P]ATP
recorded endpoint: Activity (%)
Number in %, nothing else.

The cases that follow already have their Activity on record.
{"columns": ["smiles data", "system tested", "quantity unit", "Activity"],
 "data": [
  ["N#CCCCCCn1cc(C2=C(c3cn(CCCCCC#N)c4ccccc34)C(=O)NC2=O)c2ccccc21", "Aurora kinase B (Homo sapiens, UniProt Q96GD4)", "%", 83],
  ["CCn1cc(C2=C(c3cn(C(C)C)c4ccccc34)C(=O)N(O)C2=O)c2ccccc21", "Aurora kinase B (Homo sapiens, UniProt Q96GD4)", "%", 95],
  ["O=C(O)CCCCCn1cc(C2=C(c3c[nH]c4ccccc34)C(=O)N(O)C2=O)c2ccccc21", "Aurora kinase B (Homo sapiens, UniProt Q96GD4)", "%", 63]
]}

Task item: Lab note: need Activity with Aurora kinase B (Homo sapiens, UniProt Q96GD4) for entry Cn1cc(C2=C(c3cn(C)c4ccccc34)C(=O)N(O)C2=O)c2ccccc21 , please look it up.
Reply: 84

====

# system tested: Serine/threonine-protein kinase haspin (Homo sapiens, UniProt Q8TF76)
# Sequence (Q8TF76 whole entry, the tested form may be a part): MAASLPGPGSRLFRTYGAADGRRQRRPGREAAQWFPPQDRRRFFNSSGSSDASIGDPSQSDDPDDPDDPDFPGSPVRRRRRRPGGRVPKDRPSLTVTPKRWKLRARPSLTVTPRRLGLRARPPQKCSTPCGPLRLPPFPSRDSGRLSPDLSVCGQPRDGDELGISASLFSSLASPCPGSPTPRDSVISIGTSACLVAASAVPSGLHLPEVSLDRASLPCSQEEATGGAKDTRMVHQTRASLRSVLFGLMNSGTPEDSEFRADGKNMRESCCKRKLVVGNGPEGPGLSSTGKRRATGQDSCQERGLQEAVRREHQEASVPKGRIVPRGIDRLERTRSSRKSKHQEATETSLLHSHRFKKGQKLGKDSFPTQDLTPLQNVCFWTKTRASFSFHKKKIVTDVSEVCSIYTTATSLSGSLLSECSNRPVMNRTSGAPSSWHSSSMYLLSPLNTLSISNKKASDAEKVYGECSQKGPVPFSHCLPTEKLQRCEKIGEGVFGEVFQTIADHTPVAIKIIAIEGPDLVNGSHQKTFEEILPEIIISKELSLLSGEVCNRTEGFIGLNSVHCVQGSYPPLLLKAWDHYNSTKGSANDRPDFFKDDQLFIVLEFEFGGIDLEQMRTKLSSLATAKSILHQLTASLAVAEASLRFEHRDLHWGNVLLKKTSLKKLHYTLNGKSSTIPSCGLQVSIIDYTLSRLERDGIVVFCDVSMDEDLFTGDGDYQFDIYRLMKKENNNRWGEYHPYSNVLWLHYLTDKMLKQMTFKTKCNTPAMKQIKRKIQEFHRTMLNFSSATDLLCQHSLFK
# assay comment: Inhibition of recombinant human haspin kinase domain expressed in bacteria using histone H3 (1 to 21 residues) peptide as substrate in presence of [gamma-33P]ATP
recorded endpoint: IC50

{"columns": ["smiles data", "result"],
 "data": [
  ["O=C1C2=C(C(=O)N1O)c1cn(c3ccccc13)CCCCCCn1cc2c2ccccc21", "> 10 µM"],
  ["CC(C)n1cc(C2=C(c3c[nH]c4ccccc34)C(=O)N(O)C2=O)c2ccccc21", "> 10 µM"]
]}

Next:
Task item: # IC50 lookup, item Cn1cc(C2=C(c3cn(C)c4ncccc34)C(=O)NC2=O)c2ccccc21
Reply: > 10 µM

====

// reported growth at 10 µM per item
# System: CAKI-1
# assay comment: Cytotoxicity against human Caki1 cells assessed as cell growth at 10 uM after 48 hrs by SRB assay relative to control
# Format: functional
# condition: CAKI-1, 48 h, read-out: Activity

{"columns": ["smiles data", "result"],
 "data": [
  ["Cn1cc(C2=C(c3cn(CCCCCC(=O)O)c4ccccc34)C(=O)N(O)C2=O)c2ccccc21", "86.8%"]
]}

Task item: Any idea what growth at 10 µM came out for O=C(O)CCCCCn1cc(C2=C(c3c[nH]c4ccccc34)C(=O)N(O)C2=O)c2ccccc21 on CAKI-1?
Reply: 92.2%

Task item: Record lookup: for CAKI-1, what growth at 10 µM belongs to N#CCCCCCn1cc(C2=C(c3cn(CCCCCC#N)c4ccccc34)C(=O)N(O)C2=O)c2ccccc21 ?
Reply: 65 to 67%

====

# system tested: CDK9/cyclin T1 (Homo sapiens, UniProt P50750)
# Sequence (O60563 whole entry): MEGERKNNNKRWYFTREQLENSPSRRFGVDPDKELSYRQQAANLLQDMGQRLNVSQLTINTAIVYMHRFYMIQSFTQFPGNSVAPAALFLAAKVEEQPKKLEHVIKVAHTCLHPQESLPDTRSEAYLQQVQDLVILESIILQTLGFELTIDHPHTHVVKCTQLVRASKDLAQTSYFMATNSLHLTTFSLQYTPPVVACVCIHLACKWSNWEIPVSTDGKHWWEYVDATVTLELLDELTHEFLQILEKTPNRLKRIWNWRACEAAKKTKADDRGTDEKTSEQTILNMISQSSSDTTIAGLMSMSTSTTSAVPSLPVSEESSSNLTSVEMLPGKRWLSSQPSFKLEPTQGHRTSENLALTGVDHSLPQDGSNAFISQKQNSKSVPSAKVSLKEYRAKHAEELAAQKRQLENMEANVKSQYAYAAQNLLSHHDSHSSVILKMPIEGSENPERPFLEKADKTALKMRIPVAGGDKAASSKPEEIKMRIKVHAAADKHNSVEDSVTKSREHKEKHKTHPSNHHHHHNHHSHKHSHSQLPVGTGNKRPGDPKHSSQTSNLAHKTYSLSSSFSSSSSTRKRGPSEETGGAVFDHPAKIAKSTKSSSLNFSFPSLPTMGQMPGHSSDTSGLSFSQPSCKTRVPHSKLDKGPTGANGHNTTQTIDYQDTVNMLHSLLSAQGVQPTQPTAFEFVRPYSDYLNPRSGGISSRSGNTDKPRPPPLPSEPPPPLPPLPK
# Sequence (P50750 whole entry): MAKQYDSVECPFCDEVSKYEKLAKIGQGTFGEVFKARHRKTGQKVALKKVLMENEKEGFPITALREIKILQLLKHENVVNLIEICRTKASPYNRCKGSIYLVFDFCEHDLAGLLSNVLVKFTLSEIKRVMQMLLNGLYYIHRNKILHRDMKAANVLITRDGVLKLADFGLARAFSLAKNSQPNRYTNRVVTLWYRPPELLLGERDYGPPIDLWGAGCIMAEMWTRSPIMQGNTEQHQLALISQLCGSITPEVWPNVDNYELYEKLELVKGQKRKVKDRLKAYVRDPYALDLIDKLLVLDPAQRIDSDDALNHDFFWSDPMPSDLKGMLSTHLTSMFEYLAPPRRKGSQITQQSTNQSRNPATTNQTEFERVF
# assay comment: Inhibition of recombinant full length human CDK9/cyclin T expressed in baculovirus infected Sf9 insect cells using YSPTSPSYSPTSPSYSPTSPSKKKK as substrate in presence of [gamma-33P]ATP
recorded endpoint: pIC50
pIC50 here: minus log base 10 of the concentration, concentration in moles per litre.

Task item: Look up pIC50 with CDK9/cyclin T1 (Homo sapiens, UniProt P50750) for this compound: Cn1cc(C2=C(c3cn(CCCCCC(=O)O)c4ccccc34)C(=O)N(O)C2=O)c2ccccc21
Reply: 6.15

Task item: State its pIC50 on CDK9/cyclin T1 (Homo sapiens, UniProt P50750): CCn1cc(C2=C(c3cn(C)c4ccccc34)C(=O)N(O)C2=O)c2ccccc21
Reply: 5.82

Task item: For CDK9/cyclin T1 (Homo sapiens, UniProt P50750), provide pIC50 of Cn1cc(C2=C(c3c[nH]c4ccccc34)C(=O)N(O)C2=O)c2ccccc21 please.
Reply: 5.70

Task item: Fill in the recorded pIC50 for this compound, with CDK9/cyclin T1 (Homo sapiens, UniProt P50750) as test system: Cn1cc(C2=C(c3cn(C)c4ncccc34)C(=O)NC2=O)c2ccccc21
Reply: 7.10

====

Quick reference: growth at 10 µM of the listed items.
# Test system: SR
# assay comment: Cytotoxicity against human SR cells assessed as cell growth at 10 uM after 48 hrs by SRB assay relative to control
# Assay type: functional
# condition: read-out: Activity
Please give a number only; it is taken to be in %.

{"columns": ["smiles data", "recorded endpoint", "number"],
 "data": [
  ["O=C(O)CCCCCn1cc(C2=C(c3c[nH]c4ccccc34)C(=O)N(O)C2=O)c2ccccc21", "growth at 10 µM", 100]
]}

Proceeding to the next molecule to report its growth at 10 µM.
Task item: Reported growth at 10 µM, molecule Cn1cc(C2=C(c3cn(C)c4ccccc34)C(=O)N(O)C2=O)c2ccccc21 : ____
Reply: 75.4

====

# system tested: Serine/threonine-protein kinase pim-1 (Homo sapiens)
# Sequence (P11309 whole entry): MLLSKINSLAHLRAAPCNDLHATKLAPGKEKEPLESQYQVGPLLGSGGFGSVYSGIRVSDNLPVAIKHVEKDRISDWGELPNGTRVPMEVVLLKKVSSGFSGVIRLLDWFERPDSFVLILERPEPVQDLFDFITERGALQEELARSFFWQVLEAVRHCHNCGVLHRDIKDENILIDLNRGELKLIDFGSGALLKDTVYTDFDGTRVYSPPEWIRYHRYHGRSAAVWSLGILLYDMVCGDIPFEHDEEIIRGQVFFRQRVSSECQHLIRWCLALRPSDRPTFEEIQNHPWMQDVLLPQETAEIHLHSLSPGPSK
# assay comment: Inhibition of recombinant full length human PIM1 expressed in bacteria using histone H1 as substrate in presence of [gamma-33P]ATP
Recorded IC50 for the following compounds
Write down the numeric answer in µM and omit the unit.

{"columns": ["smiles data", "number"],
 "data": [
  ["Cn1cc(C2=C(c3cn(C)c4ncccc34)C(=O)NC2=O)c2ccccc21", 2]
]}

Continue with the next compound.
Task item: Requested field: IC50. Item: Cn1cc(C2=C(c3c[nH]c4ccccc34)C(=O)N(O)C2=O)c2ccccc21
Reply: 5
